Reported protein stability index values are given for each entry in this list.
B1: CLINT1 (parent)
chain: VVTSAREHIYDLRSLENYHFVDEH

variants of: B1; experiment: protein stability index of a GFP-peptide fusion (GPS, HEK-293T) (PSI 1-6); higher = more stable; details: c terminus: a fixed tail appended;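 also: lentivirally expressed fusions sorted by FACS into six bins by GFP to DsRed ratio, PSI derived from sequencing read proportions per bin multiplied by bin number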
Give your answer as a number; write no unit.

Example cases with answers are listed next.
# input So what does the record say about protein stability index for "V1I" ?
# output 2.67

# input So what does the record say about protein stability index for "V21W" ?
# output 2.54

Others:
# input So what does the record say about protein stability index for "L12M" ?
# output 3.39

# input So what does the record say about protein stability index for "F20C" ?
# output 3.46
